Target: GDP loaded biotinylated KRas^G12C protein (Homo sapiens, UniProt P01116, G12C)
Construct: biotin (biotinylated); made in house
Sequence (P01116 1-188 isoform P01116-2 G12C): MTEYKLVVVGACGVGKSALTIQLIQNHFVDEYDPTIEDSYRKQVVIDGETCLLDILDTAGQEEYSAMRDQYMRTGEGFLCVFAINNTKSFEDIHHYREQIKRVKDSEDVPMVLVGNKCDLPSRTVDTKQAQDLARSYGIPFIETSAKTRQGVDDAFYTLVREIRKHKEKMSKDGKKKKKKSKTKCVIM
Assay: KRasG12C functional assay
Type: biochemical
Settings: KRasG12C functional assay IC50 value (μM), HTRF FRET readout of SOS-mediated nucleotide exchange and GST-Raf RBD binding; samples incubated for 4 hrs
Experimental: KRasG12C Functional Assay All enzyme and substrate solutions were prepared in assay buffer containing 20 mM HEPES (pH 7.5), 5 mM MgCl2, 150 mM NaCl, and 0.01% Tween 20. […] This is detected simultaneously via the specific binding interaction between active GTPγS KRas^G12C with GST-Raf RBD which brings the europium and XL665 into close proximity enabling an increased FRET signal to be detected on a Pherastar (BMG) plate reader equipped with the HTRF filter module. […]
Lab note: cut-off is 0.2 µM. Strictly less in IC50 is 1 (yes). Exactly 0.2 µM or more is 0 (no).

For orientation, consider the following solved cases.
INSERT INTO assay_data (compound, discrete_label) VALUES
  ('C=CC(=O)N1CCN2c3ncnc4cc(-c5c(C)ccc6[nH]ncc56)c(Cl)c(c34)OC[C@H]2C1 [Example 7]', '0 (no)'),
  ('C=CC(=O)N1CCN2c3ncnc4cc(-c5c(C)ccc6[nH]ncc56)c(Cl)c(c34)OC[C@@H]2C1 [Example 1]', '1 (yes)'),
  ('C=CC(=O)N1CCN2c3ncnc4cc(-c5c(C)ccc6[nH]ncc56)c(Cl)c(c34)OC[C@@H]2C1 (single isomer, unassigned) [Example 2]', '0 (no)'),
  ('C=CC(=O)N1CCN2c3ncnc4cc(-c5c(C)ccc6[nH]ncc56)c(Cl)c(c34)OC[C@@H]2C1 (single isomer, unassigned) [Example 3]', '1 (yes)');

Here is the next item to consider.
Is the reported IC50 for C=CC(=O)N1CCN2c3ncnc4cc(-c5cccc6[nH]ccc56)c(Cl)c(c34)OC[C@@H]2C1 [Example 53] strictly below 0.2 µM? 0 (no)

====

Give KRasG12C M.S. Binding Mean adduct % for every item shown.
Molecular target: GDP loaded biotinylated KRas^G12C protein (Homo sapiens, UniProt P01116, G12C)
Construct: biotin (biotinylated); made in house
Assay: KRasG12C mass spectrometry adducting assay
Assay type: binding
Conditions: test compound final concentration 10 μM, 4 μM KRasG12C, react for 4 hours
Give bare numbers, in %.

Solved cases (10 shown):
INSERT INTO assay_data (compound, endpoint_value) VALUES
  ('C=CC(=O)N1CCN2c3ncnc4cc(-c5cccc(OC)c5O)c(Cl)c(c34)OC[C@@H]2C1', 73),
  ('C=CC(=O)N1CCN2c3ncnc4cc(-c5cccc6[nH]c(=O)[nH]c56)c(Cl)c(c34)OC[C@@H]2C1', 64),
  ('C=CC(=O)N1CCN2c3ncnc4cc(-c5cccc6c5CCCOC6)c(Cl)c(c34)OC[C@@H]2C1', 26),
  ('C=CC(=O)N1CCN2c3ncnc4cc(-c5ccccc5C#N)c(Cl)c(c34)OC[C@@H]2C1', 62),
  ('C=CC(=O)N1CCN2c3nc(N4CC(N(C)C)C4)nc4cc(-c5c(C)ccc6[nH]ncc56)c(Cl)c(c34)OC[C@@H]2C1 [Example 75]', 57),
  ('C=CC(=O)N1CCN2c3nc(NCCN(C)C)nc4cc(-c5c(C)ccc6[nH]ncc56)c(Cl)c(c34)OC[C@@H]2C1 (single isomer, unassigned) [Example 80]', 90),
  ('C=CC(=O)N1CCN2c3ncnc4cc(-c5cnccc5C#N)c(Cl)c(c34)OC[C@@H]2C1', 17),
  ('C=CC(=O)N1CCN2c3ncnc4cc(-c5c(C)ccc6[nH]ncc56)c(Cl)c(c34)OC[C@@H]2C1 (single isomer, unassigned) [Example 2]', 2),
  ('C=CC(=O)N1CCN2c3ncnc4cc(-c5cccc6ncoc56)c(Cl)c(c34)OC[C@@H]2C1', 42),
  ('C=CC(=O)N1CCN2c3nc(NC4CCN(C5CC5)CC4)nc4cc(-c5c(C)ccc6[nH]ncc56)c(Cl)c(c34)OC[C@@H]2C1 (single isomer, unassigned) [Example 74]', 94);

Hey, quick one: what's KRasG12C M.S. Binding Mean adduct % for each of these?
1. C=CC(=O)N1CCN2c3ncnc4cc(-c5cc(F)ccc5OC)c(Cl)c(c34)OC[C@@H]2C1
2. C=CC(=O)N1CCN2c3ncnc4cc(-c5c(O)cccc5C#N)c(Cl)c(c34)OC[C@@H]2C1 (single isomer, unassigned) [Example 19]
3. C=CC(=O)N1CCN2c3ncnc4cc(-c5cccc(N=S(C)(C)=O)c5)c(Cl)c(c34)OC[C@@H]2C1
4. C=CC(=O)N1CCN2c3ncnc4cc(-c5cccc6ccc(=O)n(C)c56)c(Cl)c(c34)OC[C@@H]2C1
5. C=CC(=O)N1CCN2c3ncnc4cc(-c5c(O)cccc5F)c(Cl)c(c34)OC[C@@H]2C1 (single isomer, unassigned) [Example 10]
6. C=CC(=O)N1CCN2c3ncnc4cc(-c5cccc6c5OCCOC6)c(Cl)c(c34)OC[C@@H]2C1
7. C=CC(=O)N1CCN2c3ncnc4cc(-c5ccc(F)cc5Cl)c(Cl)c(c34)OC[C@@H]2C1

57
0
21
51
30
27
100

Value lookup for KRasG12C M.S. Binding Mean adduct %; key = C=CC(=O)N1CCN2c3ncnc4cc(-c5c(O)cccc5C#N)c(Cl)c(c34)OC[C@@H]2C1 (single isomer, unassigned) [Example 20] 100

====

Target: GDP loaded biotinylated KRas^G12C protein (Homo sapiens, UniProt P01116, G12C)
Construct: biotin (biotinylated); made in house
Assay: KRasG12C functional assay
Format: biochemical
Conditions: HTRF FRET readout of SOS-mediated nucleotide exchange and GST-Raf RBD binding; samples incubated for 4 hrs; read-out: KRasG12C functional assay IC50 value
Give pIC50 for every item shown.
Answers are plain numbers, as −log10 of the molar value.

INSERT INTO assay_data (compound, subject_of_test, endpoint_value) VALUES
  ('C=CC(=O)N1CCN2c3ncnc4cc(-c5cccc(F)c5F)c(Cl)c(c34)OC[C@@H]2C1 [Example 62]', 'GDP loaded biotinylated KRas^G12C protein (Homo sapiens, UniProt P01116, G12C)', 6.45),
  ('C=CC(=O)N1CCN2c3ncnc4cc(-c5cccc6ocnc56)c(Cl)c(c34)OC[C@@H]2C1 [Example 57]', 'GDP loaded biotinylated KRas^G12C protein (Homo sapiens, UniProt P01116, G12C)', 5.62),
  ('C=CC(=O)N1CCN2c3nc(N4CCOCC4)nc4cc(-c5c(C)ccc6[nH]ncc56)c(Cl)c(c34)OC[C@@H]2C1 [Example 70]', 'GDP loaded biotinylated KRas^G12C protein (Homo sapiens, UniProt P01116, G12C)', 6.35),
  ('C=CC(=O)N1CCN2c3ncnc4cc(-c5c(F)cccc5OC)c(Cl)c(c34)OC[C@@H]2C1 [Example 25]', 'GDP loaded biotinylated KRas^G12C protein (Homo sapiens, UniProt P01116, G12C)', 6.21),
  ('C=CC(=O)N1CCN2c3ncnc4cc(-c5cnccc5C#N)c(Cl)c(c34)OC[C@@H]2C1 [Example 67]', 'GDP loaded biotinylated KRas^G12C protein (Homo sapiens, UniProt P01116, G12C)', 5.19),
  ('Cc1ccc2[nH]ncc2c1-c1cc2ncnc3c2c(c1Cl)OC[C@@H]1CN(C(=O)/C=C/CN(C)C)CCN31 [Example 4]', 'GDP loaded biotinylated KRas^G12C protein (Homo sapiens, UniProt P01116, G12C)', 6.29);

Hey, quick one: what's pIC50 for each of these?
1. C=CC(=O)N1CCN2c3nc(NCCN(C)C)nc4cc(-c5c(C)ccc6[nH]ncc56)c(Cl)c(c34)OC[C@@H]2C1 (single isomer, unassigned) [Example 79]
2. C=CC(=O)N1CCN2c3ncnc4cc(-c5ccccc5CO)c(Cl)c(c34)OC[C@@H]2C1 [Example 65]

[5.76, 5.46]

Hey, quick one: what's pIC50 for each of these?
1. C=CC(=O)N1CCN2c3ncnc4cc(-c5cccc(CC#N)c5)c(Cl)c(c34)OC[C@@H]2C1 [Example 59]
2. C=CC(=O)N1CCN2c3ncnc4cc(-c5ccc(O)cc5)c(Cl)c(c34)OC[C@@H]2C1 [Example 52]
3. C=CC(=O)N1CCN2c3ncnc4cc(-c5cccc(NC(=O)OC)c5)c(Cl)c(c34)OC[C@@H]2C1 [Example 33]

5.23
5.27
5.16

Hey, quick one: what's pIC50 for each of these?
1. C=CC(=O)N1CCN2c3nc(NC4CCN(C5CC5)CC4)nc4cc(-c5c(C)ccc6[nH]ncc56)c(Cl)c(c34)OC[C@@H]2C1 (single isomer, unassigned) [Example 74]
2. C=CC(=O)N1CCN2c3ncnc4cc(-c5cccc6[nH]c(=O)[nH]c56)c(Cl)c(c34)OC[C@@H]2C1 [Example 13]
3. C=CC(=O)N1CCN2c3ncnc4cc(-c5c(O)cccc5F)c(Cl)c(c34)OC[C@@H]2C1 [Example 9]

1: 7.92; 2: 5.70; 3: 6.91
